Ref: paper PMC5454392

Readings of binding score for the listed binders
Target: T1, CaBdf1 BD1 (GST-tagged, wild-type) (Candida albicans (strain SC5314 / ATCC …, UniProt Q5A4W8))
T1 chain: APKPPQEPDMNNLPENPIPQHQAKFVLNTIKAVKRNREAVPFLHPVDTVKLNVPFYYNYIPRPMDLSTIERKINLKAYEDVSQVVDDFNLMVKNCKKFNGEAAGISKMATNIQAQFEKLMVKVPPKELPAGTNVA
Experiment: histone peptide array (Active Motif MODified), 1 uM GST-tagged bromodomain, anti-GST detection, normalized mean intensity
Square brackets hold non-standard residues; d marks the D form. Ends that are not written are not given here. Arg(Me2a) = CN(C)C(=N)NCCC[C@H](N)C(=O)O; Lys(Me3) = C[N+](C)(C)CCCC[C@H](N)C(=O)O; Arg(Me2s) = CN=C(NC)NCCC[C@H](N)C(=O)O; pT = C[C@@H](OP(=O)(O)O)[C@H](N)C(=O)O; pS = N[C@@H](COP(=O)(O)O)C(=O)O; Lys(Me) = CNCCCC[C@H](N)C(=O)O

binder: PRKQLATKAAR(Me2s)K(Me2)SAPATGG [H3 16-35]
binding score: 0.00254
--
binder: PDPAK(Ac)SAPAPKKGSKKAVT
binding score: 0.00363
--
binder: AR(me2s)TK(me2)QTAR(me2s)K(me3)STGGKAPRKQ
binding score: 0.00218
--
binder: SGRGKGGKGLGKGGAKRHR (S G R G Kac G G Kac G L G Kac G G A Kac R H R)
binding score: 0.471
--
binder: ARTKQTARKSTGGKAPRKQ (A R T Kme3 Q T A Rme2s Kme2 S T G G K A P R K Q)
binding score: 0.00254
--
binder: A[Arg(Me2s)]T[Lys(Me)]QTA[Arg(Me2a)][Lys(Me3)]STGGKAPRKQ
binding score: 0.0058
--
binder: ARTKQTARKSTGGKAPRKQ (A R T Kme3 Q T A Rme2s Kac S T G G K A P R K Q)
binding score: 0.0286
--
binder: SGRGKQGGK(Ac)ARAK(Ac)AKSRSS
binding score: 0.178
--
binder: ARTKQTARKSTGGKAPRKQ (A Rme2a T Kme3 Q T A R K S T G G K A P R K Q)
binding score: 0.0109
--
binder: ARTKQTARKSTGGKAPRKQ (A Rme2a T Kme2 Q T A Rme2s Kme1 S T G G K A P R K Q)
binding score: 0.00399
--
binder: ARTKQTARKSTGGKAPRKQ (A R T Kac Q T A Rme2s Kme2 S T G G K A P R K Q)
binding score: 0.00363
--
binder: ARTKQTARKSTGGKAPRKQ (A Rme2a T Kme1 Q T A Rme2a Kac S T G G K A P R K Q)
binding score: 0.0254
--
binder: PDPAK(Ac)SAPAPKK(Ac)G[pS]KKAVT
binding score: 0.00979
--
binder: SGRGKGGKGLGKGGAKRHR (not fully specified; histone peptide post-translational modifications (acetyl, methyl, phospho, citrulline) listed in columns 4-7 and embedded in the sequence text; N-terminus free or acetylated in column 8)
binding score: 0.00725
--
binder: ARTKQTARKSTGGKAPRKQ (A R T K Q T A Rme2a Kme3 pS pT G G K A P R K Q)
binding score: 0.00326
--
binder: ARTKQTARKSTGGKAPRKQ (A Rme2s T Kme2 Q T A Rme2s Kme1 S T G G K A P R K Q)
binding score: 0.00544
--
binder: ARTKQTARKSTGGKAPRKQ (A Rme2a T Kme3 Q T A Rme2s Kme3 S T G G K A P R K Q)
binding score: 0.00508
--
binder: ARTKQTARKSTGGKAPRKQ (A Rme2a T Kac Q T A R Kme2 S T G G K A P R K Q)
binding score: 0.0112
--
binder: A[Arg(Me2s)][pT]K(Ac)QTARKSTGGKAPRKQ
binding score: 0.00761
--
binder: ARTKQTA[Arg(Me2s)]K(Ac)[pS]TGGKAPRKQ
binding score: 0.00363
--
binder: [pS]GRGK(Ac)QGGKARAKAKSRSS
binding score: 0.0156
--
binder: SGRGKGGKGLGKGGAKRHR (pS G Rme2s G Kac G G K G L G K G G A K R H R)
binding score: 0.0131
--
binder: ARTKQTARKSTGGKAPRKQ (A R T K Q T A Rme2a Kme3 S pT G G K A P R K Q)
binding score: 0.00653
--
binder: ARTKQTARKSTGGKAPRKQ (A R T K Q T A R Kac S T G G Kac A P R K Q)
binding score: 0.095
--
binder: ARTKQTARKSTGGKAPRKQ (A R T Kme1 Q T A Rme2a Kme3 S T G G K A P R K Q)
binding score: 0.00254
--
binder: ARTKQTARKSTGGKAPRKQ (A R T Kac Q T A Rme2a Kme1 S T G G K A P R K Q)
binding score: 0.00834
--
binder: SGRGKQGGKARAKAKSRSS (not fully specified)
binding score: 0.0087
--
binder: ARTKQTARKSTGGKAPRKQ (A Rme2a T Kme1 Q T A Rme2a K S T G G K A P R K Q)
binding score: 0.00435
